# protocol-summary: A CellTox Green Cytotoxicity Assay to monitor cytotoxicity in HEK293 cells - 32 hour (AID 1224881); note: % is set by controls: 0 for no effect and ±100 for the full control effect; nearly all actives have a fitted effect of over 40% in size
# stated-conditions: CellTox Green fluorescence; series mostly up to 76.8 µM
Inconclusive results are not listed. Activity calls are given as the source filed them. Calls come from the whole dose curve; as a rule, active = well fitted activation curve with a large enough effect in the repeat runs; inconclusive = weak or mixed curves; inactive = flat fitted curve, though single readings scatter.
metric: outcome

// known answers, use as guide
compound=CCOC(C)OCC observed_result=inactive
compound=Clc1nc2ccccc2nc1Cl observed_result=inactive
compound=CCOC(OCC)OCC observed_result=inactive
compound=OCCCO observed_result=inactive
compound=Nc1cccc2c(=O)[nH][nH]c(=O)c12 observed_result=inactive
compound=COC(=O)/C=C/C(C)=C\C=C\C(C)=C\C=C\C=C(C)\C=C\C=C(C)\C=C\C(=O)O observed_result=inactive
compound=COc1ccc(/C=C/S(=O)(=O)NC(=O)c2ccc(C)cc2Cl)cc1 observed_result=inactive
compound="C/C(=C\\C(C)CC(C)CC(C)C)C1CC(=O)OC1=O (centres undefined)" observed_result=inactive

Query :: I have this compound here, CCCC1CCOC(C)S1 (centres undefined) , and I need its recorded outcome.
Result :: inactive

Query :: Another compound to look at: CC(C)(C)N
Result :: inactive

Query :: Another compound to look at: C=C[Si](OCC)(OCC)OCC
Result :: inactive

Query :: Another compound to look at: Cc1ccc(S(=O)(=O)NC(=O)NC2CCCC2)cc1
Result :: inactive

Query :: Another compound to look at: CCCCCCCCC(=O)OCC(C)OC(=O)CCCCCCCC (centres undefined)
Result :: inactive

Query :: Another compound to look at: C/C=C1\[C@H]2C=C(C)C[C@]1(N)c1ccc(=O)[nH]c1C2
Result :: inactive

====

# experimental-system: Estrogen receptor beta (Homo sapiens) (UniProt Q92731)
# Sequence (Q92731 whole entry, looked up): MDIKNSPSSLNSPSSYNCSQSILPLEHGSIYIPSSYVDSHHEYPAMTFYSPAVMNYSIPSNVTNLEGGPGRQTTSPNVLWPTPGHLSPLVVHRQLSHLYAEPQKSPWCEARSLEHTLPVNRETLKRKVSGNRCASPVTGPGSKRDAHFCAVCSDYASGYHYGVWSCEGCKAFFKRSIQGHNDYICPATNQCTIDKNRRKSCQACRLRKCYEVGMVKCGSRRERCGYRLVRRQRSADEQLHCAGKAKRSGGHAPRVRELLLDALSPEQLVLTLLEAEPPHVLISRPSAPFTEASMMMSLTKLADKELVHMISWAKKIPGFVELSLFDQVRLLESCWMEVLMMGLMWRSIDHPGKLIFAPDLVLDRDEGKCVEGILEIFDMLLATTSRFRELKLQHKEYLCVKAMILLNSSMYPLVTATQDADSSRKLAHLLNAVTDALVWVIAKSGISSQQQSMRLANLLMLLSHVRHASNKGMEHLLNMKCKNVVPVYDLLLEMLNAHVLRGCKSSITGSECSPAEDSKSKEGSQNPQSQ
# protocol-summary: qHTS assay to identify small molecule antagonists of the estrogen receptor beta (ER-beta) signaling pathway (AID 1259378); note: % is set by controls: 0 for no effect and ±100 for the full control effect
# stated-conditions: ER-beta-UAS-bla HEK293T, beta-lactamase FRET ratio, 16 h; series mostly up to 92.4 µM
Results filed as inconclusive are left out. Activity calls are given as the source filed them. Calls follow the shape of the dose curve; as a rule, active = well fitted inhibition curve with a large enough effect in the signal ratio in the repeat runs (not every such curve was filed as active); inconclusive = weak or mixed curves, or effect the other way; inactive = no such curve, though single readings can be large or run the other way; the % refers to the signal ratio.
metric: activity, negative = inhibition

// known answers, use as guide
compound=CCCN(C1CCN(C(=O)C2CCNCC2)CC1)[C@@H]1CCc2ccc(OC)cc2C1 experimental_system="Estrogen receptor beta (Homo sapiens) (UniProt Q92731)" metric="activity, negative = inhibition" observed_result=inactive
compound=CCCCOc1ccc(N)cc1 experimental_system="Estrogen receptor beta (Homo sapiens) (UniProt Q92731)" metric="activity, negative = inhibition" observed_result=inactive
compound=Nc1ccc(F)cc1F experimental_system="Estrogen receptor beta (Homo sapiens) (UniProt Q92731)" metric="activity, negative = inhibition" observed_result=inactive
compound="CC(C)(C)NCC(O)COc1ccc(NC(=O)NC2CCCCC2)cc1 (stereo unspecified)" experimental_system="Estrogen receptor beta (Homo sapiens) (UniProt Q92731)" metric="activity, negative = inhibition" observed_result=inactive
compound=CCC(CC)C(=O)O experimental_system="Estrogen receptor beta (Homo sapiens) (UniProt Q92731)" metric="activity, negative = inhibition" observed_result=inactive

Query :: I have this compound here, CCOC(OCC)OCC , and I need its recorded activity, negative = inhibition.
Result :: inactive

Query :: Another compound to look at: NCCOCCOCCN
Result :: inactive

Query :: Another compound to look at: CC(C)(O)C(=O)O
Result :: inactive

Query :: Another compound to look at: CC(C(=O)O)c1ccc2c(c1)Cc1cccnc1O2 (stereo unspecified)
Result :: inactive

Query :: Another compound to look at: Cc1nc(C)c(C)nc1C
Result :: inactive

====

# protocol-summary: A CellTox Green Cytotoxicity Assay to monitor cytotoxicity in HEK293 cells - 0 hour (AID 1224869); note: % is set by controls: 0 for no effect and ±100 for the full control effect; nearly all actives have a fitted effect of over 50% in size
# stated-conditions: CellTox Green fluorescence; series mostly up to 76.8 µM
Calls of active or inactive are those of the source. Calls come from the whole dose curve; as a rule, active = well fitted activation curve with a large enough effect in the repeat runs; inconclusive = weak or mixed curves; inactive = flat fitted curve, though single readings scatter.
metric: cytotoxicity

molecule=Cc1cc(C)c(C)c(O)c1 observed_result=inactive
molecule="CCCC1CCCC(=O)O1 (stereo not drawn)" observed_result=inactive
molecule="CC(C)(C(=O)O)c1ccc(C(O)CCCN2CCC(C(O)(c3ccccc3)c3ccccc3)CC2)cc1 (stereo not drawn)" observed_result=inactive

====

# protocol-summary: qHTS assay to identify small molecule antagonists of the estrogen related receptor (ERR) signaling pathway from Tox21 library - cell viability counter screen (AID 1224834); note: % is set by controls: 0 for no effect and ±100 for the full control effect; nearly all actives have a fitted effect of over 30% in size
# stated-conditions: ERR reporter cells viability, CellTiter-Fluor, 17.5 h; series mostly up to 92.4 µM
Records with an inconclusive call do not appear. Calls of active or inactive are those of the source. Calls come from the whole dose curve; as a rule, active = well fitted cell-killing curve with a large enough effect in the repeat runs; inconclusive = weak or mixed curves; inactive = flat fitted curve, though single readings scatter.
metric: viability change, negative = cytotoxic

// known answers, use as guide
molecule=CCCC(=O)OCc1ccccc1 observed_result=inactive
molecule=Clc1nc2ccccc2nc1Cl observed_result=inactive
molecule=CCC(CC)C(=O)O observed_result=inactive
molecule=Sc1nc(S)nc(S)n1 observed_result=inactive

Query :: I have this molecule here, O=C(O)c1cc(C(=O)O)c(C(=O)O)cc1C(=O)O , and I need its recorded viability change, negative = cytotoxic.
Result :: inactive

Query :: Another molecule to look at: CO[C@@H]1[C@@H](O[C@@H]2O[C@H](C)[C@@H](O[C@H]3C[C@@](C)(O)[C@@H](O)[C@H](C)O3)[C@H](N(C)C)[C@H]2O)[C@@H](CC=O)C[C@@H](C)[C@@H](O[C@@H]2CC[C@H](N(C)C)[C@@H](C)O2)/C=C/C=C/C[C@@H](C)OC(=O)C[C@H]1OC(C)=O
Result :: inactive

Query :: Another molecule to look at: CCC(=O)O[C@]1(C(=O)COC)[C@@H](C)C[C@H]2[C@@H]3CCC4=CC(=O)C=C[C@]4(C)C3(F)[C@@H](O)C[C@@]21C (stereo not given in full)
Result :: inactive

Query :: Another molecule to look at: c1ccc(CN(Cc2ccccc2)Cc2ccccc2)cc1
Result :: inactive

Query :: Another molecule to look at: CCCCCCCCCCCCN1CCOCC1
Result :: inactive

Query :: Another molecule to look at: C[C@H](CN1CCCC1)C(=O)c1ccc(C(F)(F)F)cc1
Result :: inactive

====

# protocol-summary: qHTS assay to identify small molecule that activate the aryl hydrocarbon receptor (AhR) signaling pathway - cell viability counter screen (AID 743086);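 note: HepG2 liver cells carrying the AhR DRE luciferase reporter; % is set by controls: 0 for no effect and ±100 for the full control effect; nearly all actives have a fitted effect of over 45% in size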
# stated-conditions: HepG2-AhR-luc viability, CellTiter-Fluor, 24 h; series mostly up to 70.3 µM
Records with an inconclusive call do not appear. Activity calls are given as the source filed them. The call rests on the fitted dose curve; in most records, active means well fitted cell-killing curve with a large enough effect in the repeat runs; inconclusive means weak or mixed curves, or effect the other way; inactive means flat fitted curve, though single readings scatter.
metric: viability change, negative = cytotoxic

// known answers, use as guide
compound=CC(C)CC(C)(C)C metric="viability change, negative = cytotoxic" observed_result=inactive
compound=O=C1c2ccccc2C(=O)c2c1ccc(O)c2O metric="viability change, negative = cytotoxic" observed_result=inactive
compound=O=C(O)c1ccccc1-n1cc(C(=O)O)c(=O)c2cc(Nc3c(F)cc(F)cc3Cl)c(Cl)cc21 metric="viability change, negative = cytotoxic" observed_result=inactive
compound="C/C(=C\\C(C)CC(C)CC(C)C)C1CC(=O)OC1=O (configuration not stated)" metric="viability change, negative = cytotoxic" observed_result=inactive
compound="Clc1cccc(C(c2ccc3nc[nH]c3c2)n2ccnc2)c1 (configuration not stated)" metric="viability change, negative = cytotoxic" observed_result=inactive

Query :: I have this compound here, O=C(O)c1cc(C(=O)O)c(C(=O)O)cc1C(=O)O , and I need its recorded viability change, negative = cytotoxic.
Result :: inactive

Query :: Another compound to look at: Cc1ccc(NC=O)c(C)c1
Result :: inactive

====

This listing pairs molecules with measured max activation.
# experimental-system: Nuclear receptor subfamily 1 group I member 2 (Rattus norvegicus)
# protocol-summary: Rat pregnane X receptor (rPXR) activation by small molecules, qHTS assay (AID 1346983); note: % is set by controls: 0 for no effect and ±100 for the full control effect; nearly all actives have a fitted effect of over 20% in size
# stated-conditions: rPXR luciferase reporter cells, One-Glo luminescence, 24 h; hits give high values
Results filed as inconclusive are left out.
Give your result in % as a bare value.

molecule="CCc1c(C)[nH]c2c1C(=O)C(CN1CCOCC1)CC2 (configuration not stated)" metric="max activation" unit_abbrev=% observed_result=-1.99
molecule="CC1=C(C)C(=O)C(C(CCCCCC(=O)O)c2ccccc2)=C(C)C1=O (configuration not stated)" metric="max activation" unit_abbrev=% observed_result=-6.02
molecule="CC1(COc2ccc(CC3SC(=O)NC3=O)cc2)CCCCC1 (configuration not stated)" metric="max activation" unit_abbrev=% observed_result=5.72
molecule=CCOCCn1c(N2CCCN(C)CC2)nc2ccccc21 metric="max activation" unit_abbrev=% observed_result=4.1
molecule="CC(COc1ccccc1)NC(C)C(O)c1ccc(O)cc1 (configuration not stated)" metric="max activation" unit_abbrev=% observed_result=3.54

Query :: Nuclear receptor subfamily 1 group I member 2 (Rattus norvegicus) / max activation / CC(C)(Cc1c[nH]c2ccccc12)NCC(O)COc1ccccc1C#N (configuration not stated) : value?
Result :: 11.7

Query :: Another molecule to look at: C/C(=C(\CCO)SS/C(CCO)=C(\C)N(C=O)Cc1cnc(C)nc1N)N(C=O)Cc1cnc(C)nc1N
Result :: -1.12

Query :: Another molecule to look at: O=C(OC1C[C@H]2CC[C@@H](C1)[N+]21CCCC1)C(O)(c1ccccc1)c1ccccc1 (some centres not stated)
Result :: -1.51

# credit: PubChem BioAssay (Tox21)
